# targetOfAssay: PIP5K1C (Homo sapiens, UniProt O60331)
# Sequence (O60331 whole entry): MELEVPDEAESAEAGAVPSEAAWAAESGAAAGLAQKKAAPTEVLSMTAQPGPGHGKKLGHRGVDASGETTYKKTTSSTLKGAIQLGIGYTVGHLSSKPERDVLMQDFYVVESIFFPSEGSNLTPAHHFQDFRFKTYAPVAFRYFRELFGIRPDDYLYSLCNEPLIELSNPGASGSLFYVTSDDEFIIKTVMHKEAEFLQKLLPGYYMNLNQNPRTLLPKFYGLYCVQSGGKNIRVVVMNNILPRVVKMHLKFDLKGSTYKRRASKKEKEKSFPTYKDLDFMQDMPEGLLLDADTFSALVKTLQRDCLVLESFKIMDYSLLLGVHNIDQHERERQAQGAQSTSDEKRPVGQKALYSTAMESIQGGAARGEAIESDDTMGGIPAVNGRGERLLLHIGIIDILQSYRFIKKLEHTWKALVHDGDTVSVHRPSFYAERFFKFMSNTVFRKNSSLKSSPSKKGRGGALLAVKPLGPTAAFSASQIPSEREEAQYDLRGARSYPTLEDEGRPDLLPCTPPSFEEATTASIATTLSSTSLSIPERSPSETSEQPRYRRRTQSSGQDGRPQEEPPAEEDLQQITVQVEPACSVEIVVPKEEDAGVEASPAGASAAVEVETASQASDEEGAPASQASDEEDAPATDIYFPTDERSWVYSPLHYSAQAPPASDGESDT
measuredMetric: pKd
Answers are plain numbers, as −log10 of the molar value.

Entry CC(C)Cn1c2ccc(Nc3ncccn3)cc2c2c3c(c4c(c21)CCc1nn(C)cc1-4)C(=O)NC3 : pKd on PIP5K1C (Homo sapiens, UniProt O60331) = 6.68
